Target: Broad substrate specificity ATP-binding cassette transporter ABCG2 (Homo sapiens, UniProt Q9UNQ0)
Sequence (Q9UNQ0 whole entry): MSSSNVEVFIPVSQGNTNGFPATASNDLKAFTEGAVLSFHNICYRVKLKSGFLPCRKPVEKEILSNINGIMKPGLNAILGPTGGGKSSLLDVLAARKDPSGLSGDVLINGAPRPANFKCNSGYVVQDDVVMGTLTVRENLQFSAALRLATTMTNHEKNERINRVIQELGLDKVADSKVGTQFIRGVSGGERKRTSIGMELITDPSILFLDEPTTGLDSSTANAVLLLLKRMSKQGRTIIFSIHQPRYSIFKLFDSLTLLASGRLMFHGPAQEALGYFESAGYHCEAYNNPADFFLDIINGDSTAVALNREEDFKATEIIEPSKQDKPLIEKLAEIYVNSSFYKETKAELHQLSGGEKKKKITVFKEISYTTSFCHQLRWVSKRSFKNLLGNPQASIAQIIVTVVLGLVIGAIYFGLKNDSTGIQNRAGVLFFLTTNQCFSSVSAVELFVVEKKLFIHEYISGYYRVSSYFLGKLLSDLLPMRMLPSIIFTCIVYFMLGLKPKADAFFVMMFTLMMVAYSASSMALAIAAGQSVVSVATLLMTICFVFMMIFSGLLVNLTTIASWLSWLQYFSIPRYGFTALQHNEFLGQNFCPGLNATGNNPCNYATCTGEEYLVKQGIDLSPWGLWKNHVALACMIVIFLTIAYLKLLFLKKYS
Assay: Inhibition of BCRP (unknown origin)
property_measured: IC50

// recorded IC50 for `Cc1cc(-n2ncc(CN3C[C@@H](c4ccc5c(c4C)COC5=O)N[C@@H](C)C3)n2)ncc1C#N` : > 18 µM

====

Biological target: UniProt Q96FL8
Sequence (Q96FL8 whole entry): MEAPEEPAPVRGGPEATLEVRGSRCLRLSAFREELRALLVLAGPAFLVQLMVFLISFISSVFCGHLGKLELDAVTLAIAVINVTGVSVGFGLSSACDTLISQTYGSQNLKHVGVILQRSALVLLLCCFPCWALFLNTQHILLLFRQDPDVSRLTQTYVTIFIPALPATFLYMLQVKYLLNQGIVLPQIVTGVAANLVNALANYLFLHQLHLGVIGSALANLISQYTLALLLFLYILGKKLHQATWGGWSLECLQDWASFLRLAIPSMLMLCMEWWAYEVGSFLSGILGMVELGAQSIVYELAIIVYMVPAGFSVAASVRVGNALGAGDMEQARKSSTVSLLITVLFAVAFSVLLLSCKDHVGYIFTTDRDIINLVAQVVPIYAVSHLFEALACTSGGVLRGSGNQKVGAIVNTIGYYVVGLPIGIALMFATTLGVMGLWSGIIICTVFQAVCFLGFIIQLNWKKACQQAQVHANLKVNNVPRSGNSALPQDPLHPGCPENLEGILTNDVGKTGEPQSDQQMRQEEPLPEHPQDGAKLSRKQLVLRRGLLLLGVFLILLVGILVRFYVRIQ
property_measured: pIC50
pIC50 is a log-scale quantity: -log10 of the concentration expressed in molar.

Reported pIC50 for `Cc1cc(-n2ncc(CN3C[C@@H](c4ccc5c(c4C)COC5=O)N[C@@H](C)C3)n2)ncc1C#N` was 5.57

====

experiment: AUC (0 to t) in Cynomolgus monkey at 5 mg/kg, po; assay type: ADME, organism-based, Macaca fascicularis; details: in vivo
property_measured: AUC(0-t)
The number alone won't do; follow it with the unit.

According to the records, this molecule `Cc1cc(-n2ncc(CN3C[C@@H](c4ccc5c(c4C)COC5=O)N[C@@H](C)C3)n2)ncc1C#N` displays AUC(0-t) of 5.5 µM·h

Provenance of the data: ChEMBL document CHEMBL5512682
